Where do these numbers come from? They come from patent US12173088B2.

- Test system: S. aureus USA300
- test.method.notes: microbe, parasite or virus in culture
- Format: cell-based, Staphylococcus aureus
- experimental.conditions: USA300, pH 6.8
Square brackets hold non-standard residues; d marks the D form. Peptide text beside a SMILES is read from it.
measured.quantity: MIC

Use these answered entries as a reference point.
compound | measured.quantity | meas.value
CC(C)C[C@@H](NC(=O)[C@@H](CC(C)C)NC(=O)[C@@H](CCCCN)NC(=O)[C@@H](CC(C)C)NC(=O)CNC(=O)[C@@H](CC(C)C)NC(=O)[C@@H](CO)NC(=O)[C@@H](CC(C)C)NC(=O)[C@@H](CC(C)C)NC(=O)[C@@H](CC(C)C)NC(=O)[C@@H](CO)NC(=O)[C@@H](CC(C)C)NC(=O)CN)C(N)=O [DFT503d, GLSLLLSLGLKLL] (H-G[dL][dS][dL][dL][dL][dS][dL]G[dL][dK][dL][dL]-NH2; N-terminus and C-terminus assumed) | MIC | 3.1 µM
CC(C)C[C@H](NC(=O)[C@H](CC(C)C)NC(=O)[C@H](CCCCN)NC(=O)[C@H](CC(C)C)NC(=O)CNC(=O)[C@H](CC(C)C)NC(=O)[C@H](CO)NC(=O)[C@H](CC(C)C)NC(=O)[C@H](CC(C)C)NC(=O)[C@H](CC(C)C)NC(=O)[C@H](CO)NC(=O)[C@H](CC(C)C)NC(=O)CN)C(N)=O [DFT503, GLSLLLSLGLKLL] (H-GLSLLLSLGLKLL-NH2; N-terminus and C-terminus assumed) | MIC | 3.1 µM
CC(C)C[C@H](NC(=O)[C@H](CC(C)C)NC(=O)[C@H](CCCCN)NC(=O)[C@H](CC(C)C)NC(=O)CNC(=O)[C@H](CC(C)C)NC(=O)[C@H](CO)NC(=O)[C@H](CC(C)C)NC(=O)[C@H](CC(C)C)NC(=O)[C@H](CC(C)C)NC(=O)[C@H](CCCCN)NC(=O)[C@H](CC(C)C)NC(=O)CN)C(N)=O [DFT561, GLKLLLSLGLKLL] (H-GLKLLLSLGLKLL-NH2; N-terminus and C-terminus assumed) | MIC | 3.1 µM
CC(C)C[C@H](NC(=O)[C@H](CC(C)C)NC(=O)[C@H](CCCCN)NC(=O)[C@H](CC(C)C)NC(=O)CNC(=O)[C@H](CC(C)C)NC(=O)[C@H](CCCCN)NC(=O)[C@H](CC(C)C)NC(=O)[C@H](CC(C)C)NC(=O)[C@H](CC(C)C)NC(=O)[C@H](CCCCN)NC(=O)[C@H](CC(C)C)NC(=O)[C@@H](N)CCCCN)C(N)=O [DFT565, KLKLLLKLGLKLL] (H-KLKLLLKLGLKLL-NH2; N-terminus and C-terminus assumed) | MIC | 3.1 to 6.2 µM
CC(C)C[C@@H](NC(=O)[C@@H](CC(C)C)NC(=O)[C@@H](CCCCN)NC(=O)[C@@H](CC(C)C)NC(=O)CNC(=O)[C@@H](CC(C)C)NC(=O)[C@@H](CO)NC(=O)[C@@H](CC(C)C)NC(=O)[C@@H](CC(C)C)NC(=O)[C@@H](CC(C)C)NC(=O)[C@@H](CCCCN)NC(=O)[C@@H](CC(C)C)NC(=O)CN)C(N)=O [DFT561d, GLKLLLSLGLKLL] (H-G[dL][dK][dL][dL][dL][dS][dL]G[dL][dK][dL][dL]-NH2; N-terminus and C-terminus assumed) | MIC | 3.1 µM

## Task Which value of MIC has been reported for CC(C)C[C@H](NC(=O)[C@H](CC(C)C)NC(=O)[C@H](CCCCN)NC(=O)[C@H](CC(C)C)NC(=O)CNC(=O)[C@H](CC(C)C)NC(=O)[C@H](CCCCN)NC(=O)[C@H](CC(C)C)NC(=O)[C@H](CC(C)C)NC(=O)[C@H](CC(C)C)NC(=O)[C@H](CCCCN)NC(=O)[C@H](CC(C)C)NC(=O)CN)C(N)=O [DFT564, GLKLLLKLGLKLL] (H-GLKLLLKLGLKLL-NH2; N-terminus and C-terminus assumed) in the records?
## Result 1.6 µM

---

# MIC E. faecium V286-17 (VRE) values compiled below
- Test system: E. faecium V286-17 (VRE)
- test.method.notes: microbe, parasite or virus in culture
- Assay type: cell-based, Enterococcus faecium
- experimental.conditions: V286-17 (VRE)
Square brackets hold non-standard residues; d marks the D form. Peptide text beside a SMILES is read from it.

Use these answered entries as a reference point.
molecule | meas.value
CC(C)C[C@H](NC(=O)[C@H](CC(C)C)NC(=O)[C@H](CCCCN)NC(=O)[C@H](CC(C)C)NC(=O)CNC(=O)[C@H](CC(C)C)NC(=O)[C@H](CO)NC(=O)[C@H](CC(C)C)NC(=O)[C@H](CC(C)C)NC(=O)[C@H](CC(C)C)NC(=O)[C@H](CO)NC(=O)[C@H](CC(C)C)NC(=O)CN)C(N)=O [DFT503, GLSLLLSLGLKLL] (H-GLSLLLSLGLKLL-NH2; N-terminus and C-terminus assumed) | 3.1 to 6.25 µM
CC(C)C[C@H](NC(=O)[C@H](CC(C)C)NC(=O)[C@H](CCCCN)NC(=O)[C@H](CC(C)C)NC(=O)CNC(=O)[C@H](CC(C)C)NC(=O)[C@H](CO)NC(=O)[C@H](CC(C)C)NC(=O)[C@H](CC(C)C)NC(=O)[C@H](CC(C)C)NC(=O)[C@H](CCCCN)NC(=O)[C@H](CC(C)C)NC(=O)CN)C(N)=O [DFT561, GLKLLLSLGLKLL] (H-GLKLLLSLGLKLL-NH2; N-terminus and C-terminus assumed) | 3.1 to 6.25 µM

## Task API: value(readout= MIC E. faecium V286-17 (VRE), system= E. faecium V286-17 (VRE), query= CC(C)C[C@@H](NC(=O)[C@@H](CC(C)C)NC(=O)[C@@H](CCCCN)NC(=O)[C@@H](CC(C)C)NC(=O)CNC(=O)[C@@H](CC(C)C)NC(=O)[C@@H](CO)NC(=O)[C@@H](CC(C)C)NC(=O)[C@@H](CC(C)C)NC(=O)[C@@H](CC(C)C)NC(=O)[C@@H](CO)NC(=O)[C@@H](CC(C)C)NC(=O)CN)C(N)=O [DFT503d, GLSLLLSLGLKLL] (H-G[dL][dS][dL][dL][dL][dS][dL]G[dL][dK][dL][dL]-NH2; N-terminus and C-terminus assumed) )
## Result 3.1 to 6.25 µM

---

# HL50 values compiled below
- Tested on: human red blood cells (hRBCs)
- test.method.notes: Hemolytic assay
- Format: cell-based
Square brackets hold non-standard residues; d marks the D form. Peptide text beside a SMILES is read from it. Orn = NCCC[C@H](N)C(=O)O
# unit: µM | format: bare number

compound | unit.annotation | HL50
CC(C)C[C@H](NC(=O)[C@H](CC(C)C)NC(=O)[C@H](CCCN)NC(=O)CNC(=O)[C@H](CC(C)C)NC(=O)[C@H](C)NC(=O)[C@H](CCCN)NC(=O)[C@H](CC(C)C)NC(=O)[C@H](C)NC(=O)[C@H](CO)NC(=O)[C@H](CC(C)C)NC(=O)[C@H](CC(C)C)NC(=O)CN)C(N)=O [DFT516, GLLSALOALGOLL] (H-GLLSAL[Orn]ALG[Orn]LL-NH2; N-terminus assumed) | µM | 36
CC(C)C[C@H](NC(=O)[C@H](CC(C)C)NC(=O)[C@H](CCCCN)NC(=O)CNC(=O)[C@H](CC(C)C)NC(=O)[C@H](C)NC(=O)[C@H](CO)NC(=O)[C@H](CC(C)C)NC(=O)[C@H](CC(C)C)NC(=O)[C@H](CO)NC(=O)[C@H](CC(C)C)NC(=O)[C@H](CC(C)C)NC(=O)CN)C(N)=O [DFT510, GLLSLLSALGKLL] (H-GLLSLLSALGKLL-NH2; N-terminus assumed) | µM | 19

## Task Which value of HL50 has been reported for CC(C)C[C@H](NC(=O)[C@H](C)NC(=O)[C@H](CCCCN)NC(=O)CNC(=O)[C@H](CC(C)C)NC(=O)[C@H](CC(C)C)NC(=O)[C@H](CO)NC(=O)[C@H](CC(C)C)NC(=O)[C@H](CC(C)C)NC(=O)[C@H](CO)NC(=O)[C@H](CC(C)C)NC(=O)[C@H](CC(C)C)NC(=O)CN)C(N)=O [DFT512, GLLSLLSLLGKAL] (H-GLLSLLSLLGKAL-NH2; N-terminus assumed) in the records?
## Result 4

---

- System: E. coli ATCC 25922
- Assay type: cell-based, Escherichia coli
- experimental.conditions: ATCC 25922
Square brackets hold non-standard residues; d marks the D form. Peptide text beside a SMILES is read from it. Orn = NCCC[C@H](N)C(=O)O
measured.quantity: MIC E. coli ATCC 25922 (µM)
# unit: µM | format: bare number

molecule | MIC E. coli ATCC 25922, µM
CC(C)C[C@H](NC(=O)[C@H](CC(C)C)NC(=O)[C@H](CCCCN)NC(=O)CNC(=O)[C@H](CC(C)C)NC(=O)[C@H](C)NC(=O)[C@H](CCCN)NC(=O)[C@H](CC(C)C)NC(=O)[C@H](C)NC(=O)[C@H](CO)NC(=O)[C@H](CC(C)C)NC(=O)[C@H](CC(C)C)NC(=O)CN)C(N)=O [DFT515, GLLSALOALGKLL] (H-GLLSAL[Orn]ALGKLL-NH2; N-terminus assumed) | 3.1

## Task Which value of MIC E. coli ATCC 25922 has been reported for CC(C)C[C@H](NC(=O)[C@H](CC(C)C)NC(=O)[C@H](CCCCN)NC(=O)CNC(=O)[C@H](CC(C)C)NC(=O)[C@H](CC(C)C)NC(=O)[C@H](CO)NC(=O)[C@H](CC(C)C)NC(=O)[C@H](CC(C)C)NC(=O)[C@H](CO)NC(=O)[C@H](CC(C)C)NC(=O)[C@H](C)NC(=O)CN)C(N)=O [DFT506, GALSLLSLLGKLL] (H-GALSLLSLLGKLL-NH2; N-terminus assumed) in the records?
## Result 3.1
